target: Polymerase acidic protein (Influenza A virus (strain A/X-31 H3N2)); assay: Inhibition of recombinant Influenza A/X-31 virus PA (N-terminal amino acid residue 1-217) transfected in Escherichia coli assessed as endonucleolytic digestion using single-stranded circular DNA plasmid M13mp18 after 2 hrs by ethidium bromide staining based agarose gel electrophoresis
pIC50: −log10 of the molar value.
pIC50 below 5 gives 0 (no); pIC50 at or above it gives 1 (yes).

Answered cases to consult:
| Substance smiles | Assigned label |
| --- | --- |
| O=C1Cn2c(cc3cc(O)ccc32)C(=O)N1O | 0 (no) |
| O=C1Cn2c(cc3ccccc32)C(=O)N1 | 0 (no) |
| COc1ccc2c(c1)cc1n2CC(=O)N(O)C1=O | 0 (no) |
| O=C1Cn2c(cc3cc(F)ccc32)C(=O)N1O | 0 (no) |
| O=C(O)C(=O)CC(=O)c1ccccc1 | 1 (yes) |

Consider the additional compound presented here.
### Prompt Is it the case that "O=C1Cn2c(cc3cc(Cl)ccc32)C(=O)N1O" has pIC50 reaching or exceeding 5?
### Response 0 (no)

====

assay: Dissociation constant, pKa of compound; type: physicochemical
Below, each of the compounds is paired with its reported pKa value.
In your answer, state the number alone without any accompanying words.

Reference set (4 entries):
| Substance smiles | pKa |
| --- | --- |
| O=C1Cn2c(cc3ccccc32)C(=O)N1O | 7.27 |
| O=C1Cn2c(cc3cc(O)ccc32)C(=O)N1O | 7.27 |
| O=C1Cn2c(cc3cc(F)ccc32)C(=O)N1O | 7.27 |
| O=C1Cn2c(cc3ccccc32)C(=O)N1 | 9.3 |

### Prompt Any idea what its pKa is? The compound is "COc1ccc2c(c1)cc1n2CC(=O)N(O)C1=O"
### Response 7.27

### Prompt Any idea what its pKa is? The compound is "O=C1Cn2c(cc3cc(Cl)ccc32)C(=O)N1O"
### Response 7.27

### Prompt Any idea what its pKa is? The compound is "O=C(O)C(=O)CC(=O)c1ccccc1"
### Response 2.85

====

test: Lipophilicity, log D of compound; assay type: physicochemical; settings: octanol/water
Below, each of the compounds is paired with its reported logD value.
In your answer, state the number alone without any accompanying words.

Reference set (2 entries):
| Substance smiles | Endpoint label | Assay result |
| --- | --- | --- |
| O=C1Cn2c(cc3ccccc32)C(=O)N1O | logD | 0.57 |
| O=C(O)C(=O)CC(=O)c1ccccc1 | logD | -1.73 |

### Prompt Any idea what its logD is? The compound is "O=C1Cn2c(cc3cc(O)ccc32)C(=O)N1O"
### Response 0.26

### Prompt Any idea what its logD is? The compound is "O=C1Cn2c(cc3ccccc32)C(=O)N1"
### Response 0.75

### Prompt Any idea what its logD is? The compound is "O=C1Cn2c(cc3cc(F)ccc32)C(=O)N1O"
### Response 0.71

### Prompt Any idea what its logD is? The compound is "O=C1Cn2c(cc3cc(Cl)ccc32)C(=O)N1O"
### Response 1.17

### Prompt Any idea what its logD is? The compound is "COc1ccc2c(c1)cc1n2CC(=O)N(O)C1=O"
### Response 0.41

Each recorded value in this set is attributed to ChEMBL document CHEMBL3804762.
